- TESTED_TARGET: URAT-1 transporter (Homo sapiens)
- Construct: expressed in transfected cells
- TEST: URAT-1 inhibitor activity: [14C]-uric acid uptake into CHO-URAT1(L)GFP#8 (CHO#8) cells, scintillation proximity
- Type: cell-based
ASSAY_READOUT: IC50 (nM)
Give bare numbers, in nM.

Worked cases, IC50 given:
| MOLECULE | IC50 / nM |
| --- | --- |
| N#Cc1cc(S(=O)(=O)Nc2ncns2)ccc1Oc1cc(C(F)(F)F)ccc1Cl [Example 45] | 1020 |
| COc1ccc(Oc2ccc(S(=O)(=O)Nc3ncns3)cc2C#N)c(Cl)c1 [compound 290] | 1100 |
| N#Cc1cc(S(=O)(=O)Nc2ncc(F)s2)ccc1Oc1ccc(CCO)cc1I [Example 145] | 803 |

Okay, next one:
IC50 for N#Cc1cc(S(=O)(=O)Nc2nccs2)ccc1Oc1ccc(Br)nc1 [compound 171] is 671

* * *

Please provide measured pIC50 for the entries that follow.
- TESTED_TARGET: URAT-1 transporter (Homo sapiens)
- Construct: expressed in transfected cells
- TEST: URAT-1 inhibitor activity: [14C]-uric acid uptake into CHO-URAT1(L)GFP#8 (CHO#8) cells, scintillation proximity
- Assay type: cell-based
Give bare numbers, as −log10 of the molar value.

| LINE_NOTATION | TESTED_TARGET | pIC50 |
| --- | --- | --- |
| O=S(=O)(Nc1nccs1)c1ccc(Oc2ncncc2Br)c(F)c1 | URAT-1 transporter (Homo sapiens) | 5.94 |

The following compounds each have a reported value; give each one's pIC50.
1. COc1cc(Cl)ccc1Oc1ccc(S(=O)(=O)Nc2ncns2)cc1C#N
2. Cc1cccc(Cl)c1Oc1ccc(S(=O)(=O)Nc2ncc(F)s2)cc1C#N
3. N#Cc1cc(S(=O)(=O)Nc2ncc(F)s2)ccc1Oc1cc(C(F)(F)F)ccc1Cl
4. N#Cc1cc(S(=O)(=O)Nc2nccs2)ccc1Oc1ccc(F)c(F)c1
5. Cc1cc(Oc2cc(F)c(S(=O)(=O)Nc3nncs3)cc2Cl)ccc1F

Completion:
1: 6.03; 2: 5.64; 3: 6.33; 4: 7.11; 5: 5.52

* * *

- TESTED_TARGET: URAT-1 transporter (Homo sapiens, UniProt Q96S37)
- Construct: expressed in transfected cells
- Sequence (Q96S37 with tags, fused parts or gaps): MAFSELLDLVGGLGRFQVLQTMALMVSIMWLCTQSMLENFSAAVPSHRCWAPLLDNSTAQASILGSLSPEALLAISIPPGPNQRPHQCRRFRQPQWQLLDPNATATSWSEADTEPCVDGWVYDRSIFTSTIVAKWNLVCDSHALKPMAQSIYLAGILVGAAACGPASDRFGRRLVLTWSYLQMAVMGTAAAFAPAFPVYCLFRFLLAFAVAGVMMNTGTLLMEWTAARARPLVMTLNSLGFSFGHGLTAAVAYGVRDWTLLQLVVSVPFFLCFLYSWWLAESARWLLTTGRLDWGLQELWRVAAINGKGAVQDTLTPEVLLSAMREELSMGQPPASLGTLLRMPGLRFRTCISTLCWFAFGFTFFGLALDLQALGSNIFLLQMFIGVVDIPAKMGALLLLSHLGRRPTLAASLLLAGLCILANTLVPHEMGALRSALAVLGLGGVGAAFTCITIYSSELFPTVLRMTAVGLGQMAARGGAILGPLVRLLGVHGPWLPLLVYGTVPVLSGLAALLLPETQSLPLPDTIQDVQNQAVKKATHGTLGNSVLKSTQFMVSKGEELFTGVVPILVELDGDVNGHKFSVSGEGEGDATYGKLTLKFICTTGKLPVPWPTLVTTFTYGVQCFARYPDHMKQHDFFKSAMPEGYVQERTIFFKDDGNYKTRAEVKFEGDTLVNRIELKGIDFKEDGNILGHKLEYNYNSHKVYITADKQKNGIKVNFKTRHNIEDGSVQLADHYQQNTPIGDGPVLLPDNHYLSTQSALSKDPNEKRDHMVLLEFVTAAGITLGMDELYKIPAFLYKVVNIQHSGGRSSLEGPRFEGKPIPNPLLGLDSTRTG
- TEST: URAT-1 inhibitor activity: [14C]-uric acid uptake into CHO-URAT1(L)GFP#8 (CHO#8) cells, scintillation proximity
- Type: cell-based
ASSAY_READOUT: pIC50
Give bare numbers, as −log10 of the molar value.

| LINE_NOTATION | ASSAY_VALUE |
| --- | --- |
| N#Cc1ccc(Oc2ccc(S(=O)(=O)Nc3cscn3)cc2C#N)cc1Cl | 6.96 |
| N#Cc1cc(S(=O)(=O)Nc2ncns2)ccc1Oc1ccc(F)cc1Cl | 6.30 |
| Cc1nocc1NS(=O)(=O)c1ccc(Oc2ccc(C#N)c(Cl)c2)c(C#N)c1 | 7.03 |
| N#Cc1cc(Oc2ccc(S(=O)(=O)Nc3ncc(F)s3)cc2C#N)ccc1F | 5.70 |
| COc1cccc(F)c1Oc1ccc(S(=O)(=O)Nc2ncns2)cc1C#N | 5.61 |

Then this molecule:
Note to self: pIC50 recorded for COc1cc(Cl)cc(Cl)c1Oc1cc(F)c(S(=O)(=O)Nc2nncs2)cc1Cl was 5.54
